Reference source for all entries: patent US9216999B2

target: Tyk2 (Homo sapiens (Human)); test: Enzyme assay (Assay Example^a 1), Tyk2; format: biochemical; details: ATP 100 μM
// boundary case: IC50 equal to 0.5 µM maps to Condition not met; strictly smaller maps to Condition met

# count of solved cases: 4
[
  {
    "compound": "Fc1ccc(C2(NC[C@H]3CC[C@H](c4nnn5cnc6[nH]ccc6c45)CC3)CCC2)cc1",
    "classification": "Condition not met"
  },
  {
    "compound": "N#C/C=C/[C@H]1CC[C@H](c2nnn3cnc4[nH]ccc4c23)CC1",
    "classification": "Condition met"
  },
  {
    "compound": "N#CCc1ccc(NC[C@H]2CC[C@H](c3nnn4cnc5[nH]ccc5c34)CC2)cc1",
    "classification": "Condition not met"
  },
  {
    "compound": "OC(CNC[C@H]1CC[C@H](c2nnn3cnc4[nH]ccc4c23)CC1)C(F)(F)F (stereo partly drawn)",
    "classification": "Condition met"
  }
]

Next up:
Problem: Lab note: confirm whether the reported IC50 for this compound is below 0.5 µM, equality not counting. compound: `O=C(O)C1CN(C[C@H]2CC[C@H](c3nnn4cnc5[nH]ccc5c34)CC2)C1`
Solution: Condition met

###

target: JAK3 (Homo sapiens (Human)); assay: Enzyme assay (Assay Example^a 1), JAK3; type: biochemical; settings: ATP 100 μM; Table^a 154
Sequence (P52333 whole entry): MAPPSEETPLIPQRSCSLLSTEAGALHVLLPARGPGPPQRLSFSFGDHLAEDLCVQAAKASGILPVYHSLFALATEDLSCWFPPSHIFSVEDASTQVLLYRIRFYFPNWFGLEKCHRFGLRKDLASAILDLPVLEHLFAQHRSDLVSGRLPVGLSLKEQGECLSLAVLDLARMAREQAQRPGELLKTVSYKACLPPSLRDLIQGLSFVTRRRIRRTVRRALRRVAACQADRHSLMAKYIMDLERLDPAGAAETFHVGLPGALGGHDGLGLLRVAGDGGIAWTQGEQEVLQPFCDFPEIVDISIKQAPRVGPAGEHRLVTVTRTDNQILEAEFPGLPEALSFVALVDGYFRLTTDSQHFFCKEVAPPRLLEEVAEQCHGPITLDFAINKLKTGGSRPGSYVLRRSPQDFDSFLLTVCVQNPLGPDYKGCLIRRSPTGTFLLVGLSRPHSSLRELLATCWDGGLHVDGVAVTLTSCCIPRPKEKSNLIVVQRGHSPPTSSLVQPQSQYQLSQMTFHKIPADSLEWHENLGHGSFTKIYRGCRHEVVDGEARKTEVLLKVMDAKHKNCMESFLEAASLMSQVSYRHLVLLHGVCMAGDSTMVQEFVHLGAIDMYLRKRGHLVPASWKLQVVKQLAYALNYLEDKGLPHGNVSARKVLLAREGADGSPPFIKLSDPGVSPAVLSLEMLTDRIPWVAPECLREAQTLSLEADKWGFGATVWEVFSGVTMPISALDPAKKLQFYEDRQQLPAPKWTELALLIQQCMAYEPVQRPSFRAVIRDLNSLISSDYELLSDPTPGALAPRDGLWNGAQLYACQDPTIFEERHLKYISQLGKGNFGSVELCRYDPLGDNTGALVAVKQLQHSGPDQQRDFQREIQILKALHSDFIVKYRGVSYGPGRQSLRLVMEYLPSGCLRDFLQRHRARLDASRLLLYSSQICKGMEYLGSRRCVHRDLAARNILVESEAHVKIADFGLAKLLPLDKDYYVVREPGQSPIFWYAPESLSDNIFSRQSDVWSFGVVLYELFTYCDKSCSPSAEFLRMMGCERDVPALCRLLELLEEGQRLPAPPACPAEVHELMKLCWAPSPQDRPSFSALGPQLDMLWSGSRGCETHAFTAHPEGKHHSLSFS
property_label: IC50 (µM)
Please reply with the bare figure in µM and do not write the unit itself.

Worked cases, IC50 given:
[
  {
    "compound": "c1ccc(CNC[C@H]2CC[C@H](c3nnn4cnc5[nH]ccc5c34)CC2)cc1",
    "IC50 / µM": 0.28
  },
  {
    "compound": "c1coc(CN2CCC(c3nnn4cnc5[nH]ccc5c34)CC2)c1",
    "IC50 / µM": 0.31
  },
  {
    "compound": "FC(F)C(F)(F)Oc1ccc(CN2CCC(c3nnn4cnc5[nH]ccc5c34)CC2)cc1",
    "IC50 / µM": 0.58
  }
]

Turning now to a further record.
Problem: For the compound shown here, c1cc2c(ncn3nnc([C@H]4CC[C@@H](NN5CCOCC5)CC4)c23)[nH]1 [139a] , give the reported IC50.
Solution: 0.43

###

IC50 by entry:
target: Tyk2 (Homo sapiens (Human)); experiment: Enzyme assay (Assay Example^a 1), Tyk2; assay type: biochemical; conditions: ATP 100 μM; Table^a 154

[
  {
    "molecular_string": "Clc1ccc(NC[C@H]2CC[C@H](c3nnn4cnc5[nH]ccc5c34)CC2)cc1",
    "IC50": "> 1 µM"
  }
]

Problem: For the molecule shown here, `O=C(NCCc1ccc(F)cc1)[C@H]1CC[C@H](c2nnn3cnc4[nH]ccc4c23)CC1` , give the reported IC50.
Solution: 0.37 µM

Problem: For the molecule shown here, `FC(F)(F)c1ccc(CCN2CCC(c3nnn4cnc5[nH]ccc5c34)CC2)cc1` , give the reported IC50.
Solution: > 1 µM

###

target: Tyk2 (Homo sapiens (Human), UniProt P29597); test: Enzyme assay (Assay Example^a 1), Tyk2; format: biochemical; conditions: ATP 100 μM; Table^a 154
Sequence (P29597 whole entry): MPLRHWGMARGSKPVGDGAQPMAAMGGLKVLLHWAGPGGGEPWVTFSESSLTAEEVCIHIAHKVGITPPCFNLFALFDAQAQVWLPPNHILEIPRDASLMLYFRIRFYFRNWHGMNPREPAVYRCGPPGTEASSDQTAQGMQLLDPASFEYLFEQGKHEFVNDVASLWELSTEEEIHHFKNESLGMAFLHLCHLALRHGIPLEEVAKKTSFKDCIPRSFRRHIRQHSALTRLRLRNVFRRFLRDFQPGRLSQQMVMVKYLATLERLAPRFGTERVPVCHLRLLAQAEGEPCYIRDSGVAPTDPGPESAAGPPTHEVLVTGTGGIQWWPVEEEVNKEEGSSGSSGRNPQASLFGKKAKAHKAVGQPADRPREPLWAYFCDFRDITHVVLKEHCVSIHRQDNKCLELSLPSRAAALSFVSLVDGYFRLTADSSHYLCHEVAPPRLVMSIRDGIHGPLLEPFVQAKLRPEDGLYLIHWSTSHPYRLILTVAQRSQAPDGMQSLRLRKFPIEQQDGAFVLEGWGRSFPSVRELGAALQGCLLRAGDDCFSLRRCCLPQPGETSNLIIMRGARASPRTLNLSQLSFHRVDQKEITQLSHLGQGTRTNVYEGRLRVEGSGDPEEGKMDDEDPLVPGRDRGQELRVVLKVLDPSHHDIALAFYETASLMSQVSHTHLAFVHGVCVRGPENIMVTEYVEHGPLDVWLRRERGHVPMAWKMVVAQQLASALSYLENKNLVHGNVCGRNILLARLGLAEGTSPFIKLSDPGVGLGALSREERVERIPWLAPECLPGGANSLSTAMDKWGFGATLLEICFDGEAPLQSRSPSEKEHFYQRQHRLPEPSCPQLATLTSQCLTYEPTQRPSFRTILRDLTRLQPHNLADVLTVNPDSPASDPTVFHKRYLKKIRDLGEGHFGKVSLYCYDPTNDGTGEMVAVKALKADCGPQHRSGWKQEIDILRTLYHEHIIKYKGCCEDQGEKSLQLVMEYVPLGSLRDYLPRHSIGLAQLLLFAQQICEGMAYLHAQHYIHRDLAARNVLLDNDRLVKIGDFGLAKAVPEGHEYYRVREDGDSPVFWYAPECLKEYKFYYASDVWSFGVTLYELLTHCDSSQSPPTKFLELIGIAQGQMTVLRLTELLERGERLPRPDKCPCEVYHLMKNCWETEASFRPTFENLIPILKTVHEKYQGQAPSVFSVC
property_label: IC50 (µM)
Please reply with the bare figure in µM and do not write the unit itself.

Worked cases, IC50 given:
[
  {
    "molecule": "Clc1ccc(CCN[C@H]2CC[C@H](c3nnn4cnc5[nH]ccc5c34)CC2)cc1 [198b]",
    "IC50 (µM)": 0.065
  },
  {
    "molecule": "Cc1ccc(CNC[C@H]2CC[C@H](c3nnn4cnc5[nH]ccc5c34)CC2)o1",
    "IC50 (µM)": 0.016
  },
  {
    "molecule": "Fc1cc(CN2CCC(c3nnn4cnc5[nH]ccc5c34)CC2)ccc1C(F)(F)F",
    "IC50 (µM)": 0.98
  },
  {
    "molecule": "N#CCCN(CCC#N)C[C@H]1CC[C@H](c2nnn3cnc4[nH]ccc4c23)CC1",
    "IC50 (µM)": 0.022
  }
]

Problem: For the molecule shown here, `FC(F)(F)c1nc2cc(NC[C@H]3CC[C@H](c4nnn5cnc6[nH]ccc6c45)CC3)ccc2[nH]1` , give the reported IC50.
Solution: 0.045

Problem: For the molecule shown here, `CN(C)S(=O)(=O)c1ccc2c(c1)CCN2C[C@H]1CC[C@H](c2nnn3cnc4[nH]ccc4c23)CC1` , give the reported IC50.
Solution: 0.61

###

target: JAK1 (Homo sapiens (Human), UniProt P23458); assay: Enzyme assay (Assay Example^a 1), JAK1; assay type: biochemical; details: ATP 100 μM; Table^a 154
property_label: IC50 (µM)
Please reply with the bare figure in µM and do not write the unit itself.

Worked cases, IC50 given:
[
  {
    "molecule": "c1cc2c(ncn3nnc(C4CCCCCC4)c23)[nH]1",
    "units_of_measure": "µM",
    "IC50": 0.0033
  },
  {
    "molecule": "CS(=O)(=O)c1ccc2c(c1)CCN2C[C@H]1CC[C@H](c2nnn3cnc4[nH]ccc4c23)CC1",
    "units_of_measure": "µM",
    "IC50": 0.011
  },
  {
    "molecule": "O=C([C@H]1CC[C@H](c2nnn3cnc4[nH]ccc4c23)CC1)N1CC[C@H](F)C1",
    "units_of_measure": "µM",
    "IC50": 0.061
  },
  {
    "molecule": "C[C@H](O)CNC[C@H]1CC[C@H](c2nnn3cnc4[nH]ccc4c23)CC1",
    "units_of_measure": "µM",
    "IC50": 0.0035
  },
  {
    "molecule": "Fc1ccc(CCN[C@H]2CC[C@H](c3nnn4cnc5[nH]ccc5c34)CC2)cc1 [201b]",
    "units_of_measure": "µM",
    "IC50": 0.0039
  },
  {
    "molecule": "O=C(OCc1ccccc1)N1CCCC(c2nnn3cnc4[nH]ccc4c23)C1 (racemic)",
    "units_of_measure": "µM",
    "IC50": 0.021
  },
  {
    "molecule": "Fc1cc(CN2CCC(c3nnn4cnc5[nH]ccc5c34)CC2)ccc1Cl",
    "units_of_measure": "µM",
    "IC50": 0.0016
  },
  {
    "molecule": "c1ccc(CNC[C@H]2CC[C@H](c3nnn4cnc5[nH]ccc5c34)CC2)cc1",
    "units_of_measure": "µM",
    "IC50": 0.0053
  }
]

Problem: For the molecule shown here, FC(F)(F)C1CCC(N2CCC(c3nnn4cnc5[nH]ccc5c34)CC2)CC1 (single isomer, unassigned) [56a] , give the reported IC50.
Solution: 0.5

Problem: For the molecule shown here, `FC(F)(F)CNC[C@H]1CC[C@H](c2nnn3cnc4[nH]ccc4c23)CC1` , give the reported IC50.
Solution: 0.0012

Problem: For the molecule shown here, OC(CN[C@H]1CC[C@H](c2nnn3cnc4[nH]ccc4c23)CC1)(c1ccc(Cl)cc1)C(F)(F)F (mixture of isomers) [199b] , give the reported IC50.
Solution: 0.0035

Problem: For the molecule shown here, `Fc1ccc(CCNC[C@H]2CC[C@H](c3nnn4cnc5[nH]ccc5c34)CC2)cc1` , give the reported IC50.
Solution: 0.0019

Problem: For the molecule shown here, `FC(F)(F)c1cc(CN2CCC(c3nnn4cnc5[nH]ccc5c34)CC2)cc(C(F)(F)F)c1` , give the reported IC50.
Solution: 0.78

Problem: For the molecule shown here, `O=S(=O)(c1ccc(NC[C@H]2CC[C@H](c3nnn4cnc5[nH]ccc5c34)CC2)cc1)C(F)(F)F` , give the reported IC50.
Solution: 0.034

Problem: For the molecule shown here, `N#CCCN(CCC#N)C[C@H]1CC[C@H](c2nnn3cnc4[nH]ccc4c23)CC1` , give the reported IC50.
Solution: 0.0013

Problem: For the molecule shown here, CC1CCN(C(=O)CC#N)CC1c1nnn2cnc3[nH]ccc3c12 (stereo not shown) , give the reported IC50.
Solution: 0.021

###

molecular target: Tyk2 (Homo sapiens (Human), UniProt P29597); experiment: Enzyme assay (Assay Example^a 1), Tyk2; format: biochemical; settings: ATP 100 μM
IC50 by entry:
Please reply with the bare figure in µM and do not write the unit itself.

Worked cases, IC50 given:
[
  {
    "compound": "O=C(NCC(F)(F)F)C1CN(C[C@H]2CC[C@H](c3nnn4cnc5[nH]ccc5c34)CC2)C1",
    "property_label": "IC50",
    "number": 0.58
  },
  {
    "compound": "c1cc2c(ncn3nnc([C@H]4CC[C@H](CNC5CC5)CC4)c23)[nH]1",
    "property_label": "IC50",
    "number": 0.1
  },
  {
    "compound": "O=C(N[C@@H]1CCN(C[C@H]2CC[C@H](c3nnn4cnc5[nH]ccc5c34)CC2)C1)C(F)(F)F",
    "property_label": "IC50",
    "number": 0.86
  },
  {
    "compound": "N#CC[C@H]1CC[C@H](c2nnn3cnc4[nH]ccc4c23)CC1 [435b]",
    "property_label": "IC50",
    "number": 0.0029
  },
  {
    "compound": "FC(F)(F)C1CCN(C[C@H]2CC[C@H](c3nnn4cnc5[nH]ccc5c34)CC2)CC1",
    "property_label": "IC50",
    "number": 0.74
  }
]

Problem: For the compound shown here, `O=C(NCCO)[C@H]1CC[C@H](c2nnn3cnc4[nH]ccc4c23)CC1` , give the reported IC50.
Solution: 0.33

Problem: For the compound shown here, `OC1CN(C[C@H]2CC[C@H](c3nnn4cnc5[nH]ccc5c34)CC2)C1` , give the reported IC50.
Solution: 0.049

Problem: For the compound shown here, CC(C#N)[C@H]1CC[C@H](c2nnn3cnc4[nH]ccc4c23)CC1 (some centres unmarked) [439b] , give the reported IC50.
Solution: 0.025

Problem: For the compound shown here, `O=c1[nH]c(C2CCCCC2)c2c3cc[nH]c3ncn12` , give the reported IC50.
Solution: 0.078

Problem: For the compound shown here, `OCCN(Cc1ccccc1)C[C@H]1CC[C@H](c2nnn3cnc4[nH]ccc4c23)CC1` , give the reported IC50.
Solution: 0.12

Problem: For the compound shown here, `N#CCCN1CCN(C[C@H]2CC[C@H](c3nnn4cnc5[nH]ccc5c34)CC2)CC1` , give the reported IC50.
Solution: 0.75

Problem: For the compound shown here, c1cc2c(ncn3nnc([C@H]4CC[C@H](NC5CC5)CC4)c23)[nH]1 [392b] , give the reported IC50.
Solution: 0.33
